// values below are reported T/C
System: P388 leukemia ip, CD2F1 mice, survival T/C
Assay: NCI In Vivo Anticancer Drug Screen. Data for tumor model P388 Leukemia (intraperitoneal) in CD2F1 (CDF1) mice
Details: endpoint: median survival time; dose: 100.0 mg/kg/injection; schedule: Q01DX005 (ip); vehicle: Klucel (hydroxypropylcellulose) (HPC); higher = longer survival
Toxic doses and inconclusive results are not listed. Square brackets hold non-standard residues; d marks the D form. Peptide text beside a SMILES is read from it. * marks the point of attachment. Nle = CCCC[CH](N)C(=O)O; Cbz = O=C(OCc1ccccc1)*
measured-quantity: T/C

molecule="CC(NC(=O)OCc1ccccc1)C(=O)N1CCCC1C(=O)O (stereo unspecified)" measured_quantity=T/C value="90 % of control"
molecule=c1nc(N2CCCCC2)c2[nH]cnc2n1 measured_quantity=T/C value="104 % of control"
molecule="CC(Nc1ccccc1)C(=Nc1ccccc1)Nc1ccccc1 (stereo unspecified)" measured_quantity=T/C value="113 % of control"
molecule=CCCCn1nnc2cc(-c3c(N)nc(N)nc3CC)ccc21 measured_quantity=T/C value="89 % of control"
molecule="CC1(C)OC2(C)CCC1C1C2N1C(=O)c1ccccc1 (stereo unspecified)" measured_quantity=T/C value="102 % of control"
molecule=CCOc1nc(N)c(C(=O)c2ccc(O)c(O)c2)s1 measured_quantity=T/C value="109 % of control"
molecule=CCCCCCCCCCCCCCSCCCCCCCCCCCCCC measured_quantity=T/C value="92 % of control"
molecule=NC(=O)/C(N=Nc1ccccc1I)=N\Nc1ccccc1I measured_quantity=T/C value="98 % of control"
molecule=CCOC(=O)Nc1ccc2c3c(cccc13)-c1ccccc1-2 measured_quantity=T/C value="97 % of control"
molecule=CC(C)OC(=O)NP1(=O)NCc2ccccc2CN1 measured_quantity=T/C value="103 % of control"
molecule=COC(=O)/C=C\C(C)=C/C(=O)OC measured_quantity=T/C value="99 % of control"
molecule=Cc1ccc(S(=O)(=O)C(C#N)(Cc2c[nH]c3ccccc23)Cc2c[nH]c3ccccc23)cc1 measured_quantity=T/C value="101 % of control"
molecule=O=C1C(Cl)=C(Oc2ccccc2Cl)C(=O)C(Cl)=C1Oc1ccccc1Cl measured_quantity=T/C value="99 % of control"
molecule=CSC(=O)NC(=O)NC(=O)c1ccc([N+](=O)[O-])cc1 measured_quantity=T/C value="91 % of control"
molecule="CCOC(=O)N1CC23C(C)C(C)=C(C)C2C3(C)N1C(=O)OCC (stereo unspecified)" measured_quantity=T/C value="100 % of control"
molecule=CC1(C)Cc2c(nc3ccccc3c2C(N)=O)-c2ccccc21 measured_quantity=T/C value="88 % of control"
molecule=CCOC(=O)c1ccc(N2C(=O)OC(C)(C)C2=O)cc1 measured_quantity=T/C value="97 % of control"
molecule=C=C1CC(NCC(=O)OCC)=C(O)C1=O measured_quantity=T/C value="94 % of control"
molecule="CC(=O)Nc1ccc(Cl)cc1C(Cl)c1ccccc1 (stereo unspecified)" measured_quantity=T/C value="115 % of control"
molecule="C=CC(c1ccccc1)c1cc2c(cc1OCCC)OCO2 (stereo unspecified)" measured_quantity=T/C value="96 % of control"
molecule=CCOC(=O)c1ccnc2ccc3ccccc3c12 measured_quantity=T/C value="102 % of control"
molecule=Cc1cccc(Nc2ncnc3nc[nH]c23)c1 measured_quantity=T/C value="91 % of control"
molecule=COc1ccc(/C=N/N2C(=O)c3ccccc3C2=O)c(OC)c1 measured_quantity=T/C value="98 % of control"
molecule=COc1cc(C(=O)NN=C(C)C)cc(OC)c1OC measured_quantity=T/C value="104 % of control"
molecule=CNC(=O)N(CCO)/N=C\c1ccc([N+](=O)[O-])o1 measured_quantity=T/C value="97 % of control"
molecule=O=C(Nc1ccc(Sc2ccc(N=Nc3c(O)c(S(=O)(=O)O)cc4cc(S(=O)(=O)O)ccc34)cc2)cc1)c1ccc(N=Nc2c(O)ccc3c(S(=O)(=O)O)cc(S(=O)(=O)O)cc23)cc1 measured_quantity=T/C value="97 % of control"
molecule=OCCN1CCN(CCCN2c3cscc3Sc3ccc(Cl)cc32)CC1 measured_quantity=T/C value="101 % of control"
molecule="CCCCC(NC(=O)OCc1ccccc1)C(=O)NC(C(=O)O)C(C)C (stereo unspecified) (Cbz-[Nle]-Val-OH; configuration not given here)" measured_quantity=T/C value="111 % of control"
molecule="CCOC(=O)C1Cc2c([nH]c(=O)[nH]c2=O)OC1(C)c1ccccc1 (stereo unspecified)" measured_quantity=T/C value="98 % of control"
molecule=CC(=O)Nc1ccccc1NOC(=O)c1ccccc1NC(C)=O measured_quantity=T/C value="87 % of control"
molecule=CN(C)C(=O)n1cc(Cl)c(=O)c2c3ncn(C)c3ccc21 measured_quantity=T/C value="101 % of control"
molecule="O=C(NC(CO)C(=O)O)C(Cl)Cl (stereo unspecified)" measured_quantity=T/C value="95 % of control"
molecule="COc1ccc2cc1Oc1ccc(cc1)CC1c3cc(OC)c(cc3CCN1C)Oc1c(OC)c(OC)cc3c1C(C2)N(C)CC3 (stereo unspecified)" measured_quantity=T/C value="86 % of control"
molecule="C=C1CC(c2ccc(S(=O)(=O)N3CCOCC3)cc2)OC1=O (stereo unspecified)" measured_quantity=T/C value="113 % of control"
molecule=CC(C)(C)c1cc2c(O)c(c1)Cc1cc(C(C)(C)C)cc(c1O)Cc1cc(C(C)(C)C)cc(c1O)Cc1cc(C(C)(C)C)cc(c1O)Cc1cc(C(C)(C)C)cc(c1O)Cc1cc(C(C)(C)C)cc(c1O)Cc1cc(C(C)(C)C)cc(c1O)Cc1cc(C(C)(C)C)cc(c1O)C2 measured_quantity=T/C value="90 % of control"
molecule=Cn1c(NCCN2CCCCC2)c(C(=O)/C=C/c2ccccc2)c(=O)n(C)c1=O measured_quantity=T/C value="107 % of control"

Provenance of the data: PubChem BioAssay AID330
